Each record here notes measured EC90.
# Tested on: A364V site directed mutant virus
# procedureText: microbe, parasite or virus in culture
# Assay type: cell-based, HIV-1
# reportedConditions: Human immunodeficiency virus 1, read-out: A364V EC90
// units = nM; emit number, no label

For orientation, consider the following solved cases.
C=C(C)[C@@H]1CC[C@]2(NCCN3CCS(=O)(=O)CC3)CC[C@]3(C)[C@H](CC[C@@H]4[C@@]5(C)CC=C(C6=CCC(COCc7ncccc7C#N)(C(=O)O)CC6)C(C)(C)[C@@H]5CC[C@]43C)[C@@H]12 (stereo partly shown) [reference compound] ... 340
C=C(C)[C@@H]1CC[C@]2(NCCN3CCS(=O)(=O)CC3)CC[C@]3(C)[C@H](CC[C@@H]4[C@@]5(C)CC=C(C6=CC[C@@](COc7ncccc7C#N)(C(=O)O)CC6)C(C)(C)[C@@H]5CC[C@]43C)[C@@H]12 [Example 25] ... 41
C=C(C)[C@@H]1CC[C@]2(NCC[C@]3(O)CC[C@@H](S(C)(=O)=O)CC3)CC[C@]3(C)[C@H](CC[C@@H]4[C@@]5(C)CC=C(C6=CC[C@@](COc7ncccc7C#N)(C(=O)O)CC6)C(C)(C)[C@@H]5CC[C@]43C)[C@@H]12 [Example A3] ... 166

Continue with the compound presented below.
Entry under test: C=C(C)[C@@H]1CC[C@]2(NCCN3CCS(=O)(=O)CC3)CC[C@]3(C)[C@H](CC[C@@H]4[C@@]5(C)CC=C(C6=CCC(COCc7ccccc7C#N)(C(=O)O)CC6)C(C)(C)[C@@H]5CC[C@]43C)[C@@H]12 (stereo partly shown) [reference compound] . Its EC90 was 228

----------
# Tested on: NLRepRlucP373S recombinant wild type (WT) virus
# procedureText: microbe, parasite or virus in culture
# Type: cell-based, HIV-1
# reportedConditions: Human immunodeficiency virus 1, read-out: WT EC50
measuredQuantity: pEC50
Answer as the number alone; pEC50 is minus log10 of concentration in mol/L.

Entry under test: C=C(C)[C@@H]1CC[C@]2(NCCN3CCS(=O)(=O)CC3)CC[C@]3(C)[C@H](CC[C@@H]4[C@@]5(C)CC=C(C6=CCC(COCc7ncccc7C#N)(C(=O)O)CC6)C(C)(C)[C@@H]5CC[C@]43C)[C@@H]12 (stereo partly shown) [reference compound] . Its pEC50 was 8.70

Entry under test: C=C(C)[C@@H]1CC[C@]2(NCC[C@]3(O)CC[C@@H](S(C)(=O)=O)CC3)CC[C@]3(C)[C@H](CC[C@@H]4[C@@]5(C)CC=C(C6=CC[C@@](COc7ncccc7C#N)(C(=O)O)CC6)C(C)(C)[C@@H]5CC[C@]43C)[C@@H]12 . Its pEC50 was 8.40

Entry under test: C=C(C)[C@@H]1CC[C@]2(NCCN3CCS(=O)(=O)CC3)CC[C@]3(C)[C@H](CC[C@@H]4[C@@]5(C)CC=C(C6=CCC(COCc7ccccc7C#N)(C(=O)O)CC6)C(C)(C)[C@@H]5CC[C@]43C)[C@@H]12 (stereo partly shown) [reference compound] . Its pEC50 was 8.52

Entry under test: C=C(C)[C@@H]1CC[C@]2(NCCN3CCS(=O)(=O)CC3)CC[C@]3(C)[C@H](CC[C@@H]4[C@@]5(C)CC=C(C6=CC[C@@](COc7ncccc7C#N)(C(=O)O)CC6)C(C)(C)[C@@H]5CC[C@]43C)[C@@H]12 . Its pEC50 was 8.70
